Measured inhibition values are reported for all entries that follow.
test system: Plasmodium falciparum; experiment: Inhibition of Plasmodium falciparum protein farnesyltransferase at 50 nM by scintillation proximity assay
Form entry: value (%) — number only.

# query: inhibition of entry COC(=O)N1CCC(CN(C2Cc3cc(C#N)ccc3N(Cc3cncn3C)C2)S(=O)(=O)c2sccc2C)CC1 (stereo not drawn)
95

# query: inhibition of entry Cn1cncc1CN1CC(N(CC2CCN(C(=O)NC(C)(C)C)CC2)S(=O)(=O)c2ccccn2)Cc2cc(C#N)ccc21 (stereo not drawn)
98

# query: inhibition of entry Cc1onc(-c2ccccc2)c1CN(C1Cc2cc(C#N)ccc2N(Cc2cncn2C)C1)S(=O)(=O)c1ccccn1 (stereo not drawn)
100

# query: inhibition of entry CC(C)NC(=O)N1CCC(CN(C2Cc3cc(C#N)ccc3N(Cc3cncn3C)C2)S(=O)(=O)c2ccccn2)CC1 (stereo not drawn)
100

# query: inhibition of entry Cn1cncc1CN1CC(N(Cc2ccccc2F)S(=O)(=O)c2ccccn2)Cc2cc(C#N)ccc21 (stereo not drawn)
100

# query: inhibition of entry CCS(=O)(=O)N(Cc1ccccc1F)C1Cc2cc(C#N)ccc2N(Cc2cncn2C)C1 (stereo not drawn)
61

# query: inhibition of entry Cn1cnc(S(=O)(=O)N(CC(=O)NC(C)(C)C)C2Cc3cc(C(=O)NC4CCCCC4)ccc3N(Cc3cncn3C)C2)c1 (stereo not drawn)
66

# query: inhibition of entry COC(=O)N1CCC(CN(C2Cc3cc(C#N)ccc3N(Cc3cncn3C)C2)S(=O)(=O)N(C)C)CC1 (stereo not drawn)
58

----------
tested on: Plasmodium falciparum; assay: Inhibition of Plasmodium falciparum protein farnesyltransferase at 5 nM by scintillation proximity assay
Cut-off 20% on inhibition, inclusive. At or above means 1.0; below means 0.0.

# example entries with known answers
Cn1cncc1CN1CC(N(Cc2ccccn2)S(=O)(=O)c2ccccn2)Cc2cc(C#N)ccc21 (stereo not drawn) ... 1.0
CC(=O)Nc1nc(C)c(S(=O)(=O)N(CC(=O)NC(C)(C)C)C2Cc3cc(C#N)ccc3N(Cc3cncn3C)C2)s1 (stereo not drawn) ... 0.0
CC(C)OC(=O)N1CCC(CN(C2Cc3cc(-c4ccccc4)ccc3N(Cc3cn(C)cn3)C2)S(=O)(=O)c2cn(C)cn2)CC1 (stereo not drawn) ... 0.0
Cn1cncc1CN1CC(N(CCCCCC(N)=O)S(=O)(=O)c2ccccn2)Cc2cc(C#N)ccc21 (stereo not drawn) ... 1.0

Does the reported inhibition for Cn1cncc1CN1CC(N(Cc2ccccc2F)S(=O)(=O)c2ccccc2)Cc2cc(C#N)ccc21 (stereo not drawn) fall at or above the 20% mark?
1.0

Does the reported inhibition for COC(=O)N1CCC(CN(C2Cc3cc(C#N)ccc3N(Cc3cncn3C)C2)S(=O)(=O)c2cccc3nonc23)CC1 (stereo not drawn) fall at or above the 20% mark?
1.0

Does the reported inhibition for Cn1cnc(S(=O)(=O)N(CCN)C2Cc3cc(C#N)ccc3N(Cc3cncn3C)C2)c1 (stereo not drawn) fall at or above the 20% mark?
0.0

Does the reported inhibition for CSCCC(=O)N(Cc1ccccc1F)C1Cc2cc(C#N)ccc2N(Cc2cncn2C)C1 (stereo not drawn) fall at or above the 20% mark?
0.0

Does the reported inhibition for Cn1cnc(CN2CC(N(CC(=O)NC(C)(C)C)S(=O)(=O)c3cccs3)Cc3cc(-c4ccccc4)ccc32)c1 (stereo not drawn) fall at or above the 20% mark?
0.0

Does the reported inhibition for Cn1cncc1CN1CC(N(CC2CCN(C(=O)c3cccs3)CC2)S(=O)(=O)c2ccccn2)Cc2cc(C#N)ccc21 (stereo not drawn) fall at or above the 20% mark?
1.0

Does the reported inhibition for Cn1cnc(S(=O)(=O)N(Cc2ccc3c(c2)OCCS3(=O)=O)C2Cc3cc(C#N)ccc3N(Cc3cncn3C)C2)c1 (stereo not drawn) fall at or above the 20% mark?
1.0

Does the reported inhibition for COC(=O)NCCCN(C1Cc2cc(C#N)ccc2N(Cc2cncn2C)C1)S(=O)(=O)c1ccccn1 (stereo not drawn) fall at or above the 20% mark?
1.0

Does the reported inhibition for Cn1cnc(S(=O)(=O)N(Cc2ccc(-n3cccn3)cc2)C2Cc3cc(C#N)ccc3N(Cc3cncn3C)C2)c1 (stereo not drawn) fall at or above the 20% mark?
1.0

Does the reported inhibition for CCNC(=O)N1CCC(CN(C2Cc3cc(C#N)ccc3N(Cc3cncn3C)C2)S(=O)(=O)c2ccccn2)CC1 (stereo not drawn) fall at or above the 20% mark?
1.0

Does the reported inhibition for Cn1cncc1CN1CC(N(Cc2ccc(C(F)(F)F)o2)S(=O)(=O)c2ccccn2)Cc2cc(C#N)ccc21 (stereo not drawn) fall at or above the 20% mark?
1.0

Does the reported inhibition for Cc1c(S(=O)(=O)N(Cc2cc(Br)ccc2F)C2Cc3cc(C#N)ccc3N(Cc3cncn3C)C2)ncn1C (stereo not drawn) fall at or above the 20% mark?
1.0

Does the reported inhibition for CN(C)CC(=O)N(Cc1ccccc1F)C1Cc2cc(C#N)ccc2N(Cc2cncn2C)C1 (stereo not drawn) fall at or above the 20% mark?
0.0

Does the reported inhibition for COC(=O)N1CCC(CN(C2Cc3cc(C#N)ccc3N(Cc3cncn3C)C2)S(=O)(=O)c2cccnc2)CC1 (stereo not drawn) fall at or above the 20% mark?
1.0

Does the reported inhibition for COC(=O)NCCCCN(C1Cc2cc(C#N)ccc2N(Cc2cncn2C)C1)S(=O)(=O)c1ccccn1 (stereo not drawn) fall at or above the 20% mark?
1.0

----------
system: Plasmodium falciparum; test: Inhibition of Plasmodium falciparum protein farnesyltransferase at 50 nM by scintillation proximity assay
Measured inhibition values are reported for all entries that follow.
Answer with the number, then the unit.

# query: inhibition of entry Cn1cnc(S(=O)(=O)N(Cc2ccc(-n3cccn3)cc2)C2Cc3cc(C#N)ccc3N(Cc3cncn3C)C2)c1 (centres undefined)
98%

# query: inhibition of entry CC(C)OC(=O)N1CCC(CN(C2Cc3cc(-c4ccccc4)ccc3N(Cc3cn(C)cn3)C2)S(=O)(=O)c2cn(C)cn2)CC1 (centres undefined)
32%

# query: inhibition of entry CN(C)S(=O)(=O)N(Cc1ccccc1F)C1Cc2cc(C#N)ccc2N(Cc2cncn2C)C1 (centres undefined)
62%

# query: inhibition of entry COC(=O)N1CCC(CN(C2Cc3cc(C#N)ccc3N(Cc3cncn3C)C2)S(=O)(=O)c2cncn2C)CC1 (centres undefined)
99%

----------
tested on: Plasmodium falciparum; test: Inhibition of Plasmodium falciparum protein farnesyltransferase at 0.5 nM by scintillation proximity assay
Cut-off 20% on inhibition, inclusive. At or above means criterion met; below means criterion not met.

C=C(C)CN(C1Cc2cc(-c3ccccc3)ccc2N(Cc2cn(C)cn2)C1)S(=O)(=O)c1cn(C)cn1 (stereo not drawn) ... criterion met
Cn1cncc1CN1CC(N(CC(=O)NC(C)(C)C)S(=O)(=O)c2c[nH]cn2)Cc2cc(C#N)ccc21 (stereo not drawn) ... criterion not met

Does the reported inhibition for COCCCN(C1Cc2cc(C#N)ccc2N(Cc2cncn2C)C1)S(=O)(=O)c1ccccn1 (stereo not drawn) fall at or above the 20% mark?
criterion not met

Does the reported inhibition for Cn1cnc(S(=O)(=O)N(CCc2ccccc2)C2Cc3cc(C#N)ccc3N(Cc3cncn3C)C2)c1 (stereo not drawn) fall at or above the 20% mark?
criterion met

Does the reported inhibition for CC(C)COC(=O)N1CCC(CN(C2Cc3cc(C#N)ccc3N(Cc3cncn3C)C2)S(=O)(=O)c2ccccn2)CC1 (stereo not drawn) fall at or above the 20% mark?
criterion met

----------
Measured inhibition values are reported for all entries that follow.
system: Plasmodium falciparum; experiment: Inhibition of Plasmodium falciparum protein farnesyltransferase at 0.5 nM by scintillation proximity assay
Form entry: value (%) — number only.

Cc1c(S(=O)(=O)N(Cc2ccc(S(C)(=O)=O)cc2)C2Cc3cc(C#N)ccc3N(Cc3cncn3C)C2)ncn1C (configuration not stated) ... 23

Form field: inhibition recorded for Cn1cnc(S(=O)(=O)N(CCCCCC(N)=O)C2Cc3cc(C#N)ccc3N(Cc3cncn3C)C2)c1 (configuration not stated) with Plasmodium falciparum (enter value)
31

Form field: inhibition recorded for CC(C)C(=O)N1CCC(CN(C2Cc3cc(C#N)ccc3N(Cc3cncn3C)C2)S(=O)(=O)c2ccccn2)CC1 (configuration not stated) with Plasmodium falciparum (enter value)
91

Form field: inhibition recorded for Cn1cnc(S(=O)(=O)N(CCc2c[nH]c3ccccc23)C2Cc3cc(C#N)ccc3N(Cc3cncn3C)C2)c1 (configuration not stated) with Plasmodium falciparum (enter value)
55

Form field: inhibition recorded for Cn1cnc(S(=O)(=O)N(Cc2ccc3ccccc3c2Br)C2Cc3cc(C#N)ccc3N(Cc3cncn3C)C2)c1 (configuration not stated) with Plasmodium falciparum (enter value)
0

Form field: inhibition recorded for Cn1cnc(S(=O)(=O)N(CCn2cccc2)C2Cc3cc(C#N)ccc3N(Cc3cncn3C)C2)c1 (configuration not stated) with Plasmodium falciparum (enter value)
54

Form field: inhibition recorded for COCCCCCN(C1Cc2cc(C#N)ccc2N(Cc2cncn2C)C1)S(=O)(=O)c1ccccn1 (configuration not stated) with Plasmodium falciparum (enter value)
17

Form field: inhibition recorded for CN(C)CCN(C1Cc2cc(C#N)ccc2N(Cc2cncn2C)C1)S(=O)(=O)c1cn(C)cn1 (configuration not stated) with Plasmodium falciparum (enter value)
0

Form field: inhibition recorded for Cn1cnc(S(=O)(=O)N(Cc2ccc(-n3cccc3)cc2)C2Cc3cc(C#N)ccc3N(Cc3cncn3C)C2)c1 (configuration not stated) with Plasmodium falciparum (enter value)
9

Form field: inhibition recorded for Cn1cnc(CN2CC(N(CC3CCN(C(=O)OC(C)(C)C)CC3)S(=O)(=O)c3ccccn3)Cc3cc(-c4ccccc4)ccc32)c1 (configuration not stated) with Plasmodium falciparum (enter value)
0

Form field: inhibition recorded for Cn1cncc1CN1CC(N(CCn2cccc2)S(=O)(=O)c2ccccn2)Cc2cc(C#N)ccc21 (configuration not stated) with Plasmodium falciparum (enter value)
74

Form field: inhibition recorded for Cn1cnc(CN2CC(N(Cc3ccccc3)S(=O)(=O)c3cn(C)cn3)Cc3cc(-c4ccccc4)ccc32)c1 (configuration not stated) with Plasmodium falciparum (enter value)
9
